Reference source: the supplement of paper PMC9170038

- Test system: MS2 coat protein
- assay-notes: apparent KD of MS2 coat protein; designed switch direction (-1 OFF switch, 1 ON switch): -1; higher = weaker reporter binding
- condition-summary: input ligand: microRNA oligo, concentration not stated
Each entry below lists one item and its recorded apparent KD of MS2 coat protein value.
measure: apparent KD of MS2 coat protein (nM)

polymer-sequence: AAUAAUCAUGUAGGAUAUGCGUGGCAAAGCUAUGCAGAAGGACAUGAGGAUCACCCAUGUUCUAGCGUCUGAAAACAGAUGCUA [Mat - Exclusion NG 1 - Mod of JL - D83] (Eterna round: R96, puzzle: Exclusion NG 1)
measure: apparent KD of MS2 coat protein
unit-text: nM
numeric-result: 29.5
--
polymer-sequence: GGAUAAAAGACAGGAUAUGAGGAGAGAGAGAGAUCAGAAGGGUCACAUGAGGAUCACCCAUGUGAGUUCUCGAUAAGAAACACG [Prohibition 54 - Jieux - Exclusion NG 1] (Eterna round: R96, puzzle: Exclusion NG 1)
measure: apparent KD of MS2 coat protein
unit-text: nM
numeric-result: 12.7
--
polymer-sequence: ACAUGAGGAUCACCCAUGUGACAAUAAUGGCUGAUACAGAAACAGGAUAUUCGUGAAUAUCUAACGAAGAAGGGUUAUGACUGG [Deportation 68 - Jieux - Exclusion NG 3] (Eterna round: R96, puzzle: Exclusion NG 3)
measure: apparent KD of MS2 coat protein
unit-text: nM
numeric-result: 41
--
polymer-sequence: AAAAAGGGAGGAUAUACAUGAGGAUCACCCAUGUAGCAGACGAAAAAGAGUCUGUAAUGUAGAAGGCCCAAAAA [65%, Moding Exclusion3-cac2, 4] (Eterna round: R96, puzzle: Exclusion 3)
measure: apparent KD of MS2 coat protein
unit-text: nM
numeric-result: 13.1

----------
Each entry below lists one item and its recorded apparent KD of MS2 coat protein value.
- Tested on: MS2 coat protein
- assay-notes: apparent KD of MS2 coat protein; designed switch direction (-1 OFF switch, 1 ON switch): 1; higher = weaker reporter binding
- condition-summary: input ligand: microRNA oligo, concentration not stated

polymer-sequence: GUAGCAUACCGAGGAUAUUCAACAUGAGGAUCACCCAUGUGUUUGUUAUAGGCCAAAAGGCCUUGGGAGAAGGCGGAAUGCUAC [Xeonanis - 20 Mod16] (Eterna round: R96, puzzle: Same State NG 2)
study-target: MS2 coat protein
apparent KD of MS2 coat protein / nM: 9.65
//
polymer-sequence: UGUUGUAUUACAGGAUAUCUAUUGUUUUAAUUUAGAGAAGGGUAUUCACAUGAGGAUCACCCAUGUAUAUACGAGGAAGUUGUG [JMF's solution 76] (Eterna round: R96, puzzle: Same State NG 1)
study-target: MS2 coat protein
apparent KD of MS2 coat protein / nM: 40.6
//
polymer-sequence: GGUAGGUUACUACCAAACAUGAGGAUCACCCAUGUUAAUGGGAAGGAUAUGGUACCUAUUUGGUACCAGAAGGUCCAAUUAAUU [JL Fiskers NG3ss - 2 mod 4] (Eterna round: R96, puzzle: Same State NG 3)
study-target: MS2 coat protein
apparent KD of MS2 coat protein / nM: 520
//
polymer-sequence: UGUUGUUAAUUAGGAUAUGGUCACAUGAGGAUCACCCAUGUAAUGUCGAUGCUAUGUGGAUACGAUCAGAAGGAAUGGCUAACA [SameState NG2 #94] (Eterna round: R96, puzzle: Same State NG 2)
study-target: MS2 coat protein
apparent KD of MS2 coat protein / nM: 225
//
polymer-sequence: AAUUAAUUAAUACAUGAGGAUCACCCAUGUAAUUAUUAGAUCAAGGAUAUCAGCUCGAUUAGAGCUGAGAAGGUGAUCACAUGU [SSNG3/18-A2] (Eterna round: R96, puzzle: Same State NG 3)
study-target: MS2 coat protein
apparent KD of MS2 coat protein / nM: 282

----------
- System: MS2 coat protein
- assay-notes: apparent KD of MS2 coat protein; designed switch direction (-1 OFF switch, 1 ON switch): -1; higher = weaker reporter binding
- condition-summary: input ligand: none
Each entry below lists one item and its recorded apparent KD of MS2 coat protein value.

polymer-sequence: CCUGUGUGAGGAUAUGGUGUUGGCCAAAAGGAAUAGCUCCUCCAGAAGGCACAUGAGGAUCACCCAUGUCGUGG [Jolly's Folly 23 - Jieux - Exclusion 4] (Eterna round: R96, puzzle: Exclusion 4)
study-target: MS2 coat protein
apparent KD of MS2 coat protein [µM]: 0.0602
--
polymer-sequence: UUUUAGUCAGGAUAUACAUGAGGAUCACCCAUGUAAAAUUUUAAUUUAAUUUUAAGGUGUAGAAGGGACAUUUA [Ex3 #6] (Eterna round: R97, puzzle: Exclusion 3)
study-target: MS2 coat protein
apparent KD of MS2 coat protein [µM]: 0.0336
--
polymer-sequence: GCCGAAAGUGUGAGGAUAUACCUAUGGAAACAUAGGUAGAAGGCACAUGAGGAUCACCCAUGUGUCCAAACGGC [Mat - Exclusion 4 - Eli Mod - D23] (Eterna round: R97, puzzle: Brourd's mod of Exclusion 4)
study-target: MS2 coat protein
apparent KD of MS2 coat protein [µM]: 0.0165
--
polymer-sequence: UGUUGUUACGCAGGAUAUGUAUGAGGAUCACCCAUUAAUAAAUUUUAACCACGAGGAUCACCCGUGUAGAAGGGCGGGUUAACA [pwkr exNG2 2xF5 1xFMN.13] (Eterna round: R96, puzzle: Exclusion NG 2)
study-target: MS2 coat protein
apparent KD of MS2 coat protein [µM]: 0.105

----------
Each entry below lists one item and its recorded apparent KD of MS2 coat protein value.
- Tested on: MS2 coat protein
- assay-notes: apparent KD of MS2 coat protein, switch OFF state (with FMN for OFF switches, without FMN for ON switches); designed switch direction (-1 OFF switch, 1 ON switch): -1; higher = weaker reporter binding
- condition-summary: FMN input: 0 or 200 uM; Eterna round: R93 (includes R88 designs)
measure: apparent KD of MS2 coat protein (nM)

polymer-sequence: AAGAACCUAGGAUAUACUAAAGAAAUGAAAAGAAAUAAAGAACAUGAGGAUCACCCAUGUAGAAGGAGGAAGAA [Sewadjkare III]
measure: apparent KD of MS2 coat protein
numeric-result: 26.1
//
polymer-sequence: AAAAAGUAAGGAUAUAGCAAAGGUCACGAAAGUGACAAAGGCUAGAAGGUACAUGAGGAUCACCCAUGUCCAAG [Mat - Exclusion 4 - Eli mod - D100]
measure: apparent KD of MS2 coat protein
numeric-result: 16.6
//
polymer-sequence: AAAAAGGGAGGAUAUGCAAAGGGAAAGGGAAAGGGAAAGGGACAUGAGGAUCACCCAUGUAGAAGGCUCAAAAA [scarecrow2]
measure: apparent KD of MS2 coat protein
numeric-result: 34
//
polymer-sequence: AACAGUACAGGAUAUACAUGAGGAUCACCCAUGUGAAAAUUAAGUGGCGUACCACAAUGUAGAAGGGUACUGAA [Mat - Exclusion 3 - Eli mod - D46]
measure: apparent KD of MS2 coat protein
numeric-result: 232

----------
Each entry below lists one item and its recorded apparent KD of MS2 coat protein value.
- System: MS2 coat protein
- assay-notes: apparent KD of MS2 coat protein; designed switch direction (-1 OFF switch, 1 ON switch): 1; higher = weaker reporter binding
- condition-summary: Eterna round: R95; input ligand: none
measure: apparent KD of MS2 coat protein

polymer-sequence: AUAAAACAUGAGGAUCACCCAUGUCAACAAAGUUGAGGAUAUGGGCAAAUAAAAUAAGAACCAGAAGGCGAAUAAU [salish99_ss1_r3_033] (puzzle: Same State 1)
study-target: MS2 coat protein
measure: apparent KD of MS2 coat protein
result: 546 nM
//
polymer-sequence: CAGUGCUGUCGAGAGGAUAUGCGGUGAUGGACAUGAGGAUCACCCAUGUUAGCGACAGCGUCACGGCAGAAGGCUCUACCCACUG [Soteed Omei mod 46] (puzzle: Same State 2)
study-target: MS2 coat protein
measure: apparent KD of MS2 coat protein
result: 18.2 nM
//
polymer-sequence: AGUCCAGCCUGAGCUGGACAAAAGCAUGUACAUGAGGAUCACCCAUGUCAUGUACAAGCUUUUUGCUCGUCUAAAAU [Mat - hsa-mir-208a - Mod of JL - D6] (puzzle: Sensor for hsa-mir-208a)
study-target: MS2 coat protein
measure: apparent KD of MS2 coat protein
result: 675 nM
//
polymer-sequence: GGUCCAGCCUGAGCUGGACUACAGCAUGUACAUGAGGAUCACCCAUGUCAUGUACAAGUAUGUUGUUUGUCUUAAAA [Sensorship 7 - Jieux - Sensor for hsa-mir-208a] (puzzle: Sensor for hsa-mir-208a)
study-target: MS2 coat protein
measure: apparent KD of MS2 coat protein
result: 108 nM
//
polymer-sequence: CUGUGUUGCGGGCAGGAUAUGUAUUGGGAUACAUGAGGAUCACCCAUGUGCGGGUGUUUCACCCGACAGAAGGGCCAAUCGCGAC [JL-ss2-3.22 ViennaUCT mod] (puzzle: Same State 2)
study-target: MS2 coat protein
measure: apparent KD of MS2 coat protein
result: 472 nM
